target: UniProtKB Q96BR1; assay: SGK3 degradation in HEK293 cells, immunoblot; format: cell-based; set-up: reduced endogenous SGK isoform or S6K1 expression when administered to HEK293 cells for 48 h; endogenous in cells; host or cells: HEK293; conditions: HEK293, 48 h, 0.001 μM, Figure 2
Sequence (Q96BR1 whole entry, canonical isoform): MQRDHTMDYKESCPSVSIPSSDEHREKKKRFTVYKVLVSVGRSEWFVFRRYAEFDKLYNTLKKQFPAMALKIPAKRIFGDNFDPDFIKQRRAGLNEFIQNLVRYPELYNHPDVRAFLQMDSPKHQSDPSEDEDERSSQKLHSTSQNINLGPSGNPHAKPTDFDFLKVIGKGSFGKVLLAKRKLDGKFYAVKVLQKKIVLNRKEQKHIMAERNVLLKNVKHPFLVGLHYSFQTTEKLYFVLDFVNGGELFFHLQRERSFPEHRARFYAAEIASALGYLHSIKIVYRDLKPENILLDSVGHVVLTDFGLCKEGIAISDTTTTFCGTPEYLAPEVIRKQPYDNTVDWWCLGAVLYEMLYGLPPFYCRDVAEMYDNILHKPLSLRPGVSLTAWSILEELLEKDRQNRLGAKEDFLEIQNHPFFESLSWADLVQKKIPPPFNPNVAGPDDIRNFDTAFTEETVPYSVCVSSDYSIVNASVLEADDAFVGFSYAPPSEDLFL
Metric name: remaining activity at 0.001 µM (%)
Give just the number in %; leave the unit off.

Task: Need remaining activity at 0.001 µM, item "COc1ccc(Cl)c(S(=O)(=O)Nc2ccc(-c3nc(OC[C@H]4CN(CCCCCCOCCOCCOCCOCC(=O)N[C@H](C(=O)N5C[C@H](O)C[C@H]5C(=O)NCc5ccc(-c6scnc6C)cc5)C(C)(C)C)CCO4)c4c(C)n[nH]c4n3)cc2)c1"
Output: 96

Task: And the next one, "Cc1ccc(F)c(S(=O)(=O)Nc2ccc(-c3nc(OC[C@H]4CN(CCOCCOCCOCCOCC(=O)N[C@H](C(=O)N5C[C@H](O)C[C@H]5C(=O)NCc5ccc(-c6scnc6C)cc5)C(C)(C)C)CCO4)c4cn[nH]c4n3)cc2)c1" ?
Output: 105

Task: And the next one, "Cc1ccc(F)c(S(=O)(=O)Nc2ccc(-c3nc(OC[C@H]4CN(CCCCCCOCCOCCOCC(=O)N[C@H](C(=O)N5C[C@H](O)C[C@H]5C(=O)NCc5ccc(-c6scnc6C)cc5)C(C)(C)C)CCO4)c4cn[nH]c4n3)cc2)c1" ?
Output: 97

Task: And the next one, "Cc1ccc(F)c(S(=O)(=O)Nc2ccc(-c3nc(OC[C@H]4CN(CCOCCOCC(=O)N[C@H](C(=O)N5C[C@H](O)C[C@H]5C(=O)NCc5ccc(-c6scnc6C)cc5)C(C)(C)C)CCO4)c4cn[nH]c4n3)cc2)c1" ?
Output: 104

Task: And the next one, "Cc1ccc(F)c(S(=O)(=O)Nc2ccc(-c3nc(OC[C@H]4CN(CCOCCOCCOCCOCCOCC(=O)N[C@H](C(=O)N5C[C@H](O)C[C@H]5C(=O)NCc5ccc(-c6scnc6C)cc5)C(C)(C)C)CCO4)c4cn[nH]c4n3)cc2)c1" ?
Output: 77

Task: And the next one, "Cc1ccc(F)c(S(=O)(=O)Nc2ccc(-c3nc(OC[C@H]4CN(CCCCCCOCCOCCOCCOCC(=O)N[C@H](C(=O)N5C[C@H](O)C[C@H]5C(=O)NCc5ccc(-c6scnc6C)cc5)C(C)(C)C)CCO4)c4cn[nH]c4n3)cc2)c1" ?
Output: 105

----------
Target: STK33 (Homo sapiens, UniProt Q9BYT3)
Sequence (Q9BYT3 whole entry): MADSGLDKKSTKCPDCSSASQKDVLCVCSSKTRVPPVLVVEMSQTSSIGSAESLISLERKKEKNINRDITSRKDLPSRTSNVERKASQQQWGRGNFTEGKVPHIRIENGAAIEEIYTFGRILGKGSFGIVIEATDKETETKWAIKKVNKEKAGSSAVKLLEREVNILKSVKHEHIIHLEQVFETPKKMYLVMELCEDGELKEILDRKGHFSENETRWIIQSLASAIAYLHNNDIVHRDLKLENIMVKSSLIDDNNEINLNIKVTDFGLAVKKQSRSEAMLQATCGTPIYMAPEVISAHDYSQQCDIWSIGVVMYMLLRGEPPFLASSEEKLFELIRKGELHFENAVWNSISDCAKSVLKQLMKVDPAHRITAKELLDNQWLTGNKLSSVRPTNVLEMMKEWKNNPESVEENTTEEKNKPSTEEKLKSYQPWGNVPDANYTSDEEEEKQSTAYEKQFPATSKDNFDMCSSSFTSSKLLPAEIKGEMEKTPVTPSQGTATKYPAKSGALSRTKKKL
Assay: kinase profiling panel
Type: biochemical
Text: Protein kinase profiling against a Dundee panel of 140 protein kinases was undertaken at the International Centre for Protein Kinase Profiling. The result for each kinase was presented as a mean kinase activity of the reaction taken in triplicate relative to a control sample treated with DMSO. Assay conditions and abbreviations are available at http://www.kinase-screen.mrc.ac.uk.
Metric name: remaining activity at 1 µM (%)
Give just the number in %; leave the unit off.

Task: Need remaining activity at 1 µM, item Cc1ccc(F)c(S(=O)(=O)Nc2ccc(-c3nc(OC[C@H]4CN(CCCCCCOCCOCCOCC(=O)N[C@H](C(=O)N5C[C@H](O)C[C@H]5C(=O)NCc5ccc(-c6scnc6C)cc5)C(C)(C)C)CCO4)c4cn[nH]c4n3)cc2)c1 [SGK3-PROTAC1]
Output: 110

Task: And the next one, COc1ccc(Cl)c(S(=O)(=O)Nc2ccc(-c3nc(OC[C@H]4CNCCO4)c4c(C)n[nH]c4n3)cc2)c1 [290-R, reference compound] ?
Output: 74

Task: And the next one, Cc1ccc(F)c(S(=O)(=O)Nc2ccc(-c3nc(OC[C@H]4CNCCO4)c4cn[nH]c4n3)cc2)c1 [308-R, reference compound] ?
Output: 36

Task: And the next one, Cc1ccc(F)c(S(=O)(=O)Nc2ccc(-c3nc(OC[C@H]4CN(CCCCCCOCCOCCOCC(=O)N[C@H](C(=O)N5C[C@@H](O)C[C@H]5C(=O)NCc5ccc(-c6scnc6C)cc5)C(C)(C)C)CCO4)c4cn[nH]c4n3)cc2)c1 [cisSGK3-PROTAC1] ?
Output: 109
